# SYSTEM NAME: Solute carrier organic anion transporter family member 1B1 (Homo sapiens, UniProt Q9Y6L6)
# Sequence (Q9Y6L6 whole entry): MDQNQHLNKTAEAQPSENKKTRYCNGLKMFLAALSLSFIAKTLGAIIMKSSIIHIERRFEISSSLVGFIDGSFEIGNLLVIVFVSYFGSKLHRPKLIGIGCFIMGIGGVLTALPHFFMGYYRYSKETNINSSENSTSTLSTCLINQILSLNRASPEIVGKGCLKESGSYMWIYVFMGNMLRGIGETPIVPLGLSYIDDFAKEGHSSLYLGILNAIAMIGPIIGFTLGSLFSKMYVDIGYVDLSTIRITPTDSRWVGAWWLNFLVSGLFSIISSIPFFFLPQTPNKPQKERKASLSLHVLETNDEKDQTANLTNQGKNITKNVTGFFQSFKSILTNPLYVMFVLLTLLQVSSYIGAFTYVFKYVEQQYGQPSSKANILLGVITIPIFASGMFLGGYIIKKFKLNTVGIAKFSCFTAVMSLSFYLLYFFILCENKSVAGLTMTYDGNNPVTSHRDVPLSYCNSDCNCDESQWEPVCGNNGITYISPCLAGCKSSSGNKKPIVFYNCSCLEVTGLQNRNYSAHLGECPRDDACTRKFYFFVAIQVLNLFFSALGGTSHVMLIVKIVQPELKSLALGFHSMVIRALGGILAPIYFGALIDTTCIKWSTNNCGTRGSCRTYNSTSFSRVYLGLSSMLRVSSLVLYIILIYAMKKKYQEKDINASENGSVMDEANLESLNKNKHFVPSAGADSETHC
# CONDITION SUMMARY: chinese hamster, cho, 10 µM
READOUT KIND: residual activity (%)
Give the value, in units of %, as a plain number.

Sure, the documented residual activity for Nc1ncn([C@@H]2O[C@H](CO)[C@@H](O)[C@H]2O)c(=O)n1 is 108.4

Sure, the documented residual activity for Cl.Oc1ccc2c3c1O[C@H]1[C@@H](O)CC[C@@]4(O)[C@@H](C2)N(CC2CCC2)CC[C@]314 [NALBUPHINE HYDROCHLORIDE] is 86.64

Sure, the documented residual activity for CC(C)c1c(O)ccc2c1CC[C@H]1[C@@](C)(CO)CCC[C@]21C [19-HYDROXYTOTAROL] is 15.89

Sure, the documented residual activity for CN(C)CCOC(c1ccc(Cl)cc1)c1ccccn1.O=C(O)/C=C\C(=O)O (stereo unspecified) [CARBINOXAMINE MALEATE] is 85.11

Sure, the documented residual activity for COc1ccc(CN(CCN(C)C)c2ccccn2)cc1.O=C(O)/C=C\C(=O)O [PYRILAMINE MALEATE] is 68.75

Sure, the documented residual activity for Cl.NCC(=O)CCC(=O)O [AMINOLEVULINIC ACID HYDROCHLORIDE] is 84.34

Sure, the documented residual activity for COc1ccc(-c2cc(=O)c3c(O)c(OC)c(O[C@@H]4O[C@H](CO[C@@H]5O[C@@H](C)[C@H](O)[C@@H](O)[C@H]5O)[C@@H](O)[C@H](O)[C@H]4O)cc3o2)cc1 is 39.1

Sure, the documented residual activity for CC(=O)O[C@H]1CC[C@]2(C)C(C[C@H](OC(C)=O)[C@]3(C)C4=CC(=O)OC(c5ccoc5)[C@@]4(C)CCC23)C1(C)C (stereo partly specified) is 51.92

Sure, the documented residual activity for C=CC(C1=CC(=O)C(OC)=CC1=O)c1ccc(OC)cc1 (stereo unspecified) is 116.4

Sure, the documented residual activity for CN1CCOC(c2ccccc2)c2ccccc2C1 (stereo unspecified) is 102.9

Sure, the documented residual activity for CC(C)=CCC[C@]1(C)C=Cc2c(O)c3c(c(CC=C(C)C)c2C1)O[C@]12C(=C[C@@H]4C[C@H]1C(C)(C)O[C@@]2(C/C=C(/C)C(N)=O)C4=O)C3=O is 57.81

Sure, the documented residual activity for Cc1cc(O)ccc1Cl is 119.6

Sure, the documented residual activity for CC(C)C1COc2cc3oc(=O)ccc3cc2O1 (stereo unspecified) [DIHYDRO-OBLIQUIN] is 74.37

Sure, the documented residual activity for NC1(C(=O)O)CC1 is 125.9

Sure, the documented residual activity for C=C1C2CC[C@H]3[C@]4(C)C[C@H](O[C@H]5O[C@H](CO)[C@@H](OS(=O)(=O)[O-])[C@H](OS(=O)(=O)[O-])[C@H]5OC(=O)CC(C)C)C[C@@H](C(=O)O)[C@H]4CC[C@]3(C2)[C@H]1O.[K+].[K+] is 100

Sure, the documented residual activity for CC(C)C[C@H]1C(=O)N2CCC[C@H]2[C@]2(O)O[C@](NC(=O)[C@@H]3C=C4c5cccc6[nH]c(Br)c(c56)C[C@H]4N(C)C3)(C(C)C)C(=O)N12.CS(=O)(=O)O [BROMOCRIPTINE MESYLATE] is 67.37

Sure, the documented residual activity for CC(C)(C)C(=O)C(Oc1ccc(Cl)cc1)n1cncn1 (stereo unspecified) is 75.79

Sure, the documented residual activity for CC1(C)C(=O)[C@@H]2O[C@@H]2[C@]2(C)[C@H]3CC[C@@]4(C)[C@H](c5ccoc5)OC(=O)[C@H]5O[C@]54[C@]3(C)[C@H](O)C[C@@H]12 is 12.73

Sure, the documented residual activity for CCOC(=O)C1(O)Oc2cc(OC)cc(OC)c2C(=O)C1c1ccccc1 (stereo unspecified) is 106.9

Sure, the documented residual activity for O=C(O)CCC(=O)c1ccc(-c2ccccc2)cc1 is 172.9

Sure, the documented residual activity for C#C[C@]1(O)CC[C@H]2[C@@H]3CCC4=CC(=O)CC[C@@H]4[C@H]3CC[C@@]21C is 91.27

Sure, the documented residual activity for CCC(C(N)=O)c1ccccc1 (stereo unspecified) [FENBUTYRAMIDE] is 101.6

Sure, the documented residual activity for C/C1=C\CCC(=O)C2CC(C)(C)C2CC1 (stereo unspecified) is 72.07

Sure, the documented residual activity for Cc1cc(=O)c2c(O)c3c(cc2o1)OC(C)(C)CC3 [DIHYDROSPATHELIACHROMENE] is 127.1

Sure, the documented residual activity for COc1ccc([C@@H]2CC(=O)c3c(O)cc(O[C@@H]4O[C@H](CO[C@@H]5O[C@@H](C)[C@H](O)[C@@H](O)[C@H]5O)[C@@H](O)[C@H](O)[C@H]4O)cc3O2)cc1O is 106.1

Sure, the documented residual activity for CC(C)CCC[C@@H](C)[C@H]1CC[C@H]2[C@@H]3CC=C4CC(=O)CC[C@]4(C)[C@H]3CC[C@]12C is 119.6796

Sure, the documented residual activity for Cn1c(=O)c2[nH]cnc2n(C)c1=O.O is 90.11

Sure, the documented residual activity for COc1ccc2c3c([nH]c2c1)C(C)=NCC3 is 92.56

Sure, the documented residual activity for c1ccc2[nH]c(-c3cscn3)nc2c1 is 76.75

Sure, the documented residual activity for Cc1ccc(C(C)C)c(O)c1C(=O)O is 75.5

Sure, the documented residual activity for C[C@]12CC[C@@H]3c4ccc(OS(=O)(=O)[O-])cc4CC[C@H]3[C@@H]1CC[C@@H]2O.[Na+] is 53.18

----------
# SYSTEM NAME: UniProtKB Q9NPD5
# Sequence (Q9NPD5 whole entry): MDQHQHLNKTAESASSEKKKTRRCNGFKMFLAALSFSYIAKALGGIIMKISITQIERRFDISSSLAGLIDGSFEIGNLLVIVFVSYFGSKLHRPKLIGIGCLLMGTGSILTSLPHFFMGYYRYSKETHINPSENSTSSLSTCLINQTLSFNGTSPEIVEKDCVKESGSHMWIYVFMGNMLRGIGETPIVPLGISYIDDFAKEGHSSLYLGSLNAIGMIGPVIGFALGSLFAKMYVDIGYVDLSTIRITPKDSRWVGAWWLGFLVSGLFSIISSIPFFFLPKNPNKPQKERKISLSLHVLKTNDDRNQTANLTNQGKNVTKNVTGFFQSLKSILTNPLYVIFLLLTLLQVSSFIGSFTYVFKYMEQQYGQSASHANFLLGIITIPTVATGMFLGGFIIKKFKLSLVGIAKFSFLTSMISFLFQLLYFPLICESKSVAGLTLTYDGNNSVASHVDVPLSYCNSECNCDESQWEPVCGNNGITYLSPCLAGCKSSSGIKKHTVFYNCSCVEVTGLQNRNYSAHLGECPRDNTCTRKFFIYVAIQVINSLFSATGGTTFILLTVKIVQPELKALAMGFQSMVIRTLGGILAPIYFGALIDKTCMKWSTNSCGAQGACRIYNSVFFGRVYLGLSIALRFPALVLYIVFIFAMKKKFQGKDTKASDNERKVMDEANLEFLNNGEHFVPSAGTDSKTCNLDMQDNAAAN
READOUT KIND: IC50 (nM)
Give the value, in units of nM, as a plain number.

Sure, the documented IC50 for CC(=O)O[C@H]1CC[C@]2(C)[C@H]3C(=O)C=C4[C@@H]5[C@@H](C)[C@H](C)CC[C@]5(C(=O)O)CC[C@@]4(C)[C@]3(C)CC[C@H]2C1(C)C [11-OXOURSOLIC ACID ACETATE] is 11500

Sure, the documented IC50 for CC(=O)O[C@@H]1CC[C@]2(C)[C@H](C[C@@H](OC(C)=O)[C@]3(C)C4=CC(=O)O[C@H](c5ccoc5)[C@@]4(C)CC[C@@H]23)C1(C)C is 1410

Sure, the documented IC50 for CCCc1nc2c(C)cc(-c3nc4ccccc4n3C)cc2n1Cc1ccc(-c2ccccc2C(=O)O)cc1 is 1260

Sure, the documented IC50 for Cc1onc(-c2c(Cl)cccc2Cl)c1C(=O)N[C@@H]1C(=O)N2[C@@H]1SC(C)(C)[C@@H]2C(=O)[O-].O.[Na+] [DICLOXACILLIN SODIUM] is 2000

Sure, the documented IC50 for CC(=O)O[C@@H]1C[C@@H]2C(C)(C)C(=O)C=C[C@@]2(C)[C@@H]2CC[C@@]3(C)C(=CC(=O)O[C@@H]3c3ccoc3)[C@@]12C is 3800

Sure, the documented IC50 for Cc1cc(O)c(C=O)c2c1C(=O)Oc1c(C)c(O)c3c(c1O2)C(O)OC3=O (centres undefined) is 550

Sure, the documented IC50 for COC(=O)c1c(OC)cc2c(c1C)Oc1c(Cl)c(O)c(Cl)c(C)c1C(=O)O2 is 2630

Sure, the documented IC50 for COc1c(CC=C(C)C)c2c(c3oc(=O)c(-c4ccc(O)cc4)c(O)c13)C=CC(C)(C)O2 is 741

Sure, the documented IC50 for CCC(C)C(=O)O[C@@H]1C[C@@]2(C)[C@H](c3ccoc3)OC(=O)CC23OC2(C)O[C@]14[C@]1(C)[C@@H](CC(=O)OC)C5(C)CC1(O)[C@](O)(C5OC(=O)C1(C)OC1C)[C@@H](OC(C)=O)[C@]34O2 (some centres undefined) is 776

Sure, the documented IC50 for CCCc1nc(C(C)(C)O)c(C(=O)OCc2oc(=O)oc2C)n1Cc1ccc(-c2ccccc2-c2nnn[nH]2)cc1 is 977

Sure, the documented IC50 for O=C1C=CC(=C(c2ccc(O)cc2)c2ccc(O)cc2)C=C1 is 4070

Sure, the documented IC50 for COC(=O)/C(C)=C\CC12OC(C)(C)C3CC(C=C4C(=O)c5c(OC)c6c(c(CC=C(C)C)c5OC431)OC(C)(CCC=C(C)C)C=C6)C2=O (centres undefined) [DIMETHYL GAMBOGATE] is 5130

Sure, the documented IC50 for COc1cc(C2Oc3cc([C@H]4Oc5cc(O)cc(O)c5C(=O)[C@@H]4O)ccc3OC2CO)ccc1O (some centres undefined) is 4270

Sure, the documented IC50 for C=CC1=C(C)/C(=C/c2[nH]c(Cc3[nH]c(/C=C4\NC(=O)C(C)=C4C=C)c(C)c3CCC(=O)O)c(CCC(=O)O)c2C)NC1=O is 3390

Sure, the documented IC50 for CC[C@@H](C(=O)[C@@H](C)[C@@H](O)[C@H](C)CCc1ccc(C)c(O)c1C(=O)[O-])[C@H]1O[C@](CC)([C@H]2CC[C@](O)(CC)[C@H](C)O2)C[C@@H]1C.[Na+] [LASALOCID A SODIUM] is 776

Sure, the documented IC50 for C=C1[C@@H]([C@@]2(C)[C@@H](OC(C)=O)CC(=O)O[C@](C)(COC(C)=O)[C@@H]2C(=O)OC)[C@@H](OC=O)[C@H](OC(=O)[C@H](O)[C@H](C)CC)[C@@]2(C)[C@H](c3ccoc3)CC(=O)[C@]12O is 3390

Sure, the documented IC50 for CC[C@H]1OC(=O)[C@H](C)[C@@H](O[C@H]2C[C@@](C)(OC)[C@@H](O)[C@H](C)O2)[C@H](C)[C@@H](O[C@@H]2O[C@H](C)C[C@H](N(C)C)[C@H]2O)[C@](C)(OC)C[C@@H](C)C(=O)[C@H](C)[C@@H](O)[C@]1(C)O is 3310

Sure, the documented IC50 for COC(=O)c1c(C)c2c(c(C)c1O)OC(=O)c1c(C)c(Cl)c(O)c(Cl)c1O2 is 2400

Sure, the documented IC50 for CC(C)CCCC1(C)C=Cc2c(O)c3c(c(CCC(C)C)c2O1)OC12C(CC4CC1C(C)(C)OC2(CCC(C)C(=O)O)C4O)C3=O (centres undefined) [DECAHYDROGAMBOGIC ACID] is 2290

Sure, the documented IC50 for CCOC(=O)CCC(=O)O[C@H]1[C@H](O[C@@H]2[C@@H](C)[C@H](O[C@H]3C[C@@](C)(OC)[C@@H](O)[C@H](C)O3)[C@@H](C)C(=O)O[C@H](CC)[C@@](C)(O)[C@H](O)[C@@H](C)C(=O)[C@H](C)C[C@@]2(C)O)O[C@H](C)C[C@@H]1N(C)C [ERYTHROMYCIN ETHYLSUCCINATE] is 2090

Sure, the documented IC50 for CC1(C)[C@@H](O)C=C[C@]2(C)[C@H]3CC[C@@]4(C)[C@H](c5ccoc5)OC(=O)[C@H]5O[C@]54[C@]3(C)C(=O)C[C@@H]12 is 5010

Sure, the documented IC50 for CC(=O)Oc1c2c(c(CC=C(C)C)c3c1C(=O)C1=C[C@@H]4CC5C(C)(C)OC(C/C=C(\C)C(=O)O)(C4=O)[C@@]15O3)OC(C)(CCC=C(C)C)C=C2 (some centres undefined) is 5370

Sure, the documented IC50 for O=C(O)c1cc2ccccc2c(Cc2c(O)c(C(=O)O)cc3ccccc23)c1O.OCCOCCN1CCN(C(c2ccccc2)c2ccc(Cl)cc2)CC1 [HYDROXYZINE PAMOATE] is 1230

Sure, the documented IC50 for CC(C)=CCCC1(C)C=Cc2c(O)c3c(c(CC=C(C)C)c2O1)OC12C(=CC4CC1C(C)(C)OC2(C/C=C(/C)C(=O)O)C4O)C3=O (centres undefined) [DIHYDROGAMBOGIC ACID] is 2880
